Test system: S. cerevisiae Burl-1 ts mutant growth, BacTiter-Glo, 38.5C 24 h
assay-info: restored growth of temperature-sensitive Burl-1 yeast – whole organism, S. cerevisiae, Burl-1 ts mutant, luminescence, counter-screen for SUMOylation pathway inhibitor project, dose response (AID 463199)
Calls of active or inactive are those of the source.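 How the source made its calls: active means AC50, the dose giving half-maximal effect, exceeds a fixed cutoff for a compound that rescues yeast growth under heat; inactive means the rest, inconclusive results apart.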
Please state which outcome applies, choosing from label 1 = active, label 0 = inactive

Query: Check the results log: what was the call for COC(=O)C1=C(C)N(Cc2ccccc2)C(=S)N[C@H]1c1cccc(F)c1 ?
Response: label 0

Query: Just curious, what result did Cc1ccc(S(=O)(=O)Cc2ccc(C(=O)N3CCN(c4ccccn4)CC3)o2)cc1 get here?
Response: label 0

Query: // param item: COc1ccc2c(c1)[C@H]1[C@H](CO2)[C@H](c2ccccc2)[C@]2(C)C(=O)Nc3cc(C)ccc3C(=O)N12 ; yields the recorded call
Response: label 0

Query: For CCN(CC)c1ccc(C=C2C(=O)OC(c3ccccc3)OC2=O)cc1 (configuration not stated) , what call appears in the results of this test?
Response: label 0

Query: Tell me the assay call for Cc1nc2ccccc2c(=O)n1CC(=O)N1CCOCC1 please.
Response: label 0

Query: What is the recorded call for this molecule in the test? O=S(=O)(NCc1ccccc1)c1ccc(S(=O)(=O)N(Cc2ccccn2)Cc2ccco2)cc1
Response: label 1

Query: Returns: the outcome recorded for CCCCc1n[nH]c(=S)n1Cc1ccc(C)cc1 in this assay.
Response: label 0

Query: Record request — test call for CC1CCCN(C(=O)Cc2ccc(F)cc2)C1 (configuration not stated)
Response: label 0

Query: Returns: the outcome recorded for Cc1c(Cl)c([N+](=O)[O-])nn1CC(=O)NC12CC3CC(CC(C3)C1)C2 in this assay.
Response: label 0

Query: Fill in: this test's call for O=C(NC1CCCCC1)N(Cc1cc2cc3c(cc2[nH]c1=O)OCCO3)C1CCCCC1 is ___
Response: label 0

Query: Identify the outcome logged in this assay for the molecule shown: c1ccc2cc(Cn3ccnc3)ccc2c1
Response: label 0

Query: Can you look up the reported call for Cc1cc(O)c(/C=N/Nc2cccc(Cl)c2)c(=O)o1 for me?
Response: label 0

Query: Outcome logged for C[C@H](NC(=O)OC(C)(C)C)C(=O)NCC1CCC(C(=O)N[C@@H](Cc2ccccc2)C(=O)O)CC1 (some centres not stated) in this assay:
Response: label 0

Query: Hello, I am checking results. What call was entered for CCN(CC)S(=O)(=O)c1ccc(N2CCCC2)c(C(=O)OCC(=O)Nc2cc(C)on2)c1 ?
Response: label 0

Query: Would you mind telling me which call this test gave CC(C(=O)NCCN1CCOCC1)(c1ccccc1)c1ccccc1 ?
Response: label 0

Query: Field: outcome | Entry: CC1CCN(C(=O)c2[nH]cnc2C(=O)NCC(=O)OCc2ccccc2)CC1
Response: label 0

Query: # lookup: test call for C(=N\N1CCN(C2c3ccccc3-c3ccccc32)CC1)/c1ccncc1
Response: label 0

Query: Please state the recorded outcome for this molecule: Cc1ccc(C(C(=O)Nc2ccc3c(c2)OCO3)N(C)C(=O)/C=C\c2ccc3c(c2)OCO3)cc1 (configuration not stated)
Response: label 0

Query: Test call, this molecule: CCc1ccc(-n2c(Cc3ccccc3)n[nH]c2=S)cc1
Response: label 0

Query: Would you mind telling me which call this test gave Cc1ccccc1NC(=O)COC(=O)C1C2CC3OC(=O)C1C3C2 (configuration not stated) ?
Response: label 0

Query: Tell me the assay call for CCC(C)[C@H]1COCCS(=O)(=O)N1Cc1ccc(C)cc1 (some centres not stated) please.
Response: label 0

Query: I would be grateful if you could indicate the recorded call for COc1ccc(NC(=O)c2ccc(-n3cncn3)c([N+](=O)[O-])c2)cc1 .
Response: label 0

Query: Given COc1ccc(-n2c(C)cc(C(=O)CN3C(=O)NC4(CCCc5sccc54)C3=O)c2C)cc1 (configuration not stated) , state the outcome it received in this test.
Response: label 0

Query: recorded result category for CCc1ccc2c(c1)C(c1ccc([N+](=O)[O-])cc1)=NNC(c1ccc(C)cc1)=N2 in this test
Response: label 0

Query: Status in this test for c1coc(C2OCC3(CO2)COC(c2ccco2)OC3)c1 (configuration not stated) ?
Response: label 0

Query: Hi, sorry to bother you, what did the test record for CCOc1ccc(-c2nc3n(c(=O)c2C#N)CCS3)cc1 ?
Response: label 1

Query: What call does the record list for CCOC(=O)c1sc2ncnc(N3CCN(c4ccc(OC)cc4)CC3)c2c1C ?
Response: label 0

Query: recorded result category for COc1cc([C@@H]2CC=C(C(=O)O)[C@H](c3ccccc3F)N2S(=O)(=O)c2ccc(C)cc2)cc(OC)c1OC in this test
Response: label 0

Query: How did this test come out for Cc1ccc(C)n1-n1cnc2sc3c(c2c1=O)CCCCC3 ?
Response: label 0

Query: Hey, what did the test say about CCCCCCOc1ccc(N2C(=O)CC(N3CCC(C(=O)OCC)CC3)C2=O)cc1 (configuration not stated) ?
Response: label 0

Query: Per the assay record, what outcome was assigned to Cc1nc(N2CCN(c3ccccn3)CC2)c2c(C)c(C(=O)N3CCN(c4ccccc4F)CC3)sc2n1 ?
Response: label 0

Query: # fetch the recorded call for O=C1c2ccccc2S(=O)(=O)N1Cc1cc(=O)n2ccsc2n1 here
Response: label 0

Query: I'd appreciate the recorded outcome for COc1ccc2c(c1)OC[C@H]1[C@H]2N2C(=O)c3cc(F)ccc3NC(=O)[C@@]2(C)[C@H]1c1ccccc1 from this test.
Response: label 0

Query: For CNC(=O)Nc1cc(NC(=O)NC)cc(C(F)(F)F)c1 , which call appears in the assay record?
Response: label 0

Query: GET /call?item= Cc1ccc(-c2csc3ncn(CC(=O)N4CCOCC4)c(=O)c23)cc1 returns the recorded outcome of this test.
Response: label 0

Query: // param item: Cc1cc(C(F)(F)F)c(C#N)c(=O)[nH]1 ; yields the recorded call
Response: label 0

Query: What did this assay record as the result for Nc1ccc(Oc2ccccc2-c2ccccc2)cc1 ?
Response: label 0

Query: # outcome recorded in this test, key = COc1ccc(/C=C2/SC(=O)N(NS(=O)(=O)c3ccccc3)C2=S)cc1OC
Response: label 0

Query: Which outcome was assigned to Cc1cc(C)c(S(=O)(=O)NCC(c2cccnc2)N2CCN(Cc3ccccc3)CC2)c(C)c1 (configuration not stated) in this test?
Response: label 0

Query: Could you kindly confirm the outcome this assay logged for Cc1cc(=O)c(C(=O)O)cn1Nc1ccc(Cl)cc1 ?
Response: label 0

Query: What outcome does the record of this test show for COCCn1c(=O)[nH]c(=O)c2cc(C(=O)c3cc(Cl)ccc3O)cnc21 ?
Response: label 0

Query: // outcome(item) with item = O=C1C2C(c3ccccc3)CC=CC2[C@H](c2ccc3ccccc3c2)N1Cc1ccccc1 (some centres not stated)
Response: label 0
